Below is a list of entries, each paired with its recorded dH value.
Target: T1, WWOX WW1-WW2 tandem domain (amino acids 16-91) (human)
T1 chain: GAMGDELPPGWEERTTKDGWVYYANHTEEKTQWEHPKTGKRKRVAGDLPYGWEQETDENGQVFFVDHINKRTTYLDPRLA
Experiment: ITC
READOUT_LABEL: dH (kcal/mol)

> print(dat)
                                     binder  readout.label         u  numeric.readout
1  AFNIPPPIYTSRAGGGGGHSPPPAYTPMS [ErbB4 double-motif peptide PY1PY2S (natural linker replaced by polyglycine)]             dH  kcal/mol              -29
2  AFNIPPPIYTSRARIDSNRSEIGHSPPPAYTPMS [ErbB4 double-motif peptide PY1PY2 (1027-1060, natural linker)]             dH  kcal/mol              -39
3  AFNIPPPIYTSRAGGGGGTVLPPPPYRHRN [ErbB4 double-motif peptide PY1PY3 (polyglycine linker)]             dH  kcal/mol              -22
4  GTVLPPPPYRHRNGGGGGTVLPPPPYRHRN [ErbB4 double-motif peptide PY3PY3 (polyglycine linker)]             dH  kcal/mol            -24.9
